The reported measurements were obtained from patent US20120129833A1.

Each record here notes measured IC50.
STUDY_TARGET: recombinant human ACC1 (acetyl-CoA carboxylase 1) (Homo sapiens)
Construct: NM_198834, amino acids 39—end; FLAG (C)
PROTOCOL_TEXT: Human ACC1 enzyme assay (HTRF ADP detection);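 also: ADP by-product quantified by competitive HTRF immunoassay with europium cryptate anti-ADP antibody and d2-labelled ADP, read after 1 h binding at 22 °C, enzyme near 2.5 ng/µl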
CONDITION_PARAMETERS: 50 μM ATP, 20 μM acetyl-CoA, 15 min pre-incubation, 20 min at 22° C.; read-out: ACC 1 IC50
Could you give me the number in nM? Just the number is fine.

See these solved cases before continuing.
Cc1cc(C)c(-c2ccc(Cl)cc2)cc1C1=C(O)C2(CCCCC2)CC1=O [Example 6-8]    1380
Cc1ccc(-c2ccc(F)cc2)cc1C1=C(O)C2(CCCCC2)OC1=O [Example 2-21]    400
COC1CCC2(C1)NC(=O)C(c1c(C)ccc(-c3ccc(Cl)cc3)c1C)=C2O (stereo not drawn) [Example 1-48]    1010
COC1CCC2(CC1)OC(=O)C(c1c(C)ccc(-c3ccc(Cl)cc3)c1C)=C2O (stereo not drawn) [Example 2-34]    286

**Q:** Record Cc1ccc(-c2ccc(Cl)cc2)cc1C1=C(O)C2(CCC3(CCCO3)CC2)OC1=O (stereo not drawn) [Example 2-29] : what is its IC50 with recombinant human ACC1 (acetyl-CoA carboxylase 1) (Homo sapiens)?
**A:** 321

**Q:** Record Cc1ccc(-c2ccc(Cl)cc2)cc1C1=C(O)C2(CCOCC2)OC1=O [Example 2-37] : what is its IC50 with recombinant human ACC1 (acetyl-CoA carboxylase 1) (Homo sapiens)?
**A:** 342

**Q:** Record Cc1ccc(-c2ccc(Cl)cc2)cc1C1C(=O)N2CCCCN2C1=O [Example 8-3] : what is its IC50 with recombinant human ACC1 (acetyl-CoA carboxylase 1) (Homo sapiens)?
**A:** 1140

**Q:** Record Cc1ccc(-c2ccc(Cl)cc2)cc1C1=C(O)C2(CCCCCC2)OC1=O [Example 2-38] : what is its IC50 with recombinant human ACC1 (acetyl-CoA carboxylase 1) (Homo sapiens)?
**A:** 416
